Entry source: PubChem BioAssay (EPA / NIEHS)

Tested on: DIO2 (gene 1734)
Assay Notes: CCTE_GLTED_hDIO2: CCTE's human Deiodinase 2 (DIO2) Inhibition Assay, Great Lakes Toxicology and Ecology Division (GLTED) Lab (AID 2284050)
Calls of active or inactive are those of the source. Rule for the calls: active = hit-call score of the fitted dose curve at least 0.9, where 1 is the maximum; inconclusive = response in the unintended direction; inactive = score below 0.9.
Valid outcomes are listed here; reply with one: active, inactive

(Q) Tell me the assay call for `Cc1ccc(-c2cc(C(F)(F)F)nn2-c2ccc(S(N)(=O)=O)cc2)cc1` please.
(A) active

(Q) In this assay, the call recorded for `CCCCCCCCCCCCCCOS(=O)(=O)O` was what?
(A) active

(Q) What outcome does the record of this test show for `CCN(CC)CCOc1ccc(C(=C(Cl)c2ccccc2)c2ccccc2)cc1` ?
(A) active

(Q) Fill in: this test's call for `S=c1[nH]c2ccccc2s1` is ___
(A) active

(Q) Called result for `O=C(Oc1ccccc1)c1cccc(C(=O)Oc2ccccc2)c1`
(A) active

(Q) // param item: `CC(=O)O[C@]1(C(C)=O)CC[C@H]2[C@@H]3C=C(Cl)C4=CC(=O)[C@@H]5C[C@@H]5[C@]4(C)[C@H]3CC[C@@]21C` ; yields the recorded call
(A) inactive

(Q) Hi, do you know how `CCCCCCCCCCCCCCCCO` came out in this test?
(A) inactive

(Q) Please indicate how the test categorized `O=Cc1ccccc1C=O` .
(A) active

(Q) What outcome does the record of this test show for `CCCCCCC(C=O)=Cc1ccccc1` ?
(A) active

###

Measurement Target: Muscarinic acetylcholine receptor M5 (Homo sapiens)
Assay Notes: NVS_GPCR_hM5: NovaScreen (NVS) G Protein-Coupled Receptor Assay for human Muscarinic, M5 Receptor (AID 2283275)
Procedure: NVS_GPCR_hM5 is a biochemical, single-readout assay that uses extracted gene-proteins from CHO in a cell-free assay. Measurements were taken 1 hour after chemical dosing in a 96-well plate.NVS_GPCR_hM5 is one of one assay component(s) measured or calculated from the NVS_GPCR_hM5 assay. […] This assay endpoint, NVS_GPCR_hM5, was analyzed in the positive analysis fitting direction relative to DMSO as the negative control and baseline of activity. […]
The source made the active and inactive calls. Rule for the calls: active = hit-call score of the fitted dose curve at least 0.9, where 1 is the maximum; inconclusive = response in the unintended direction; inactive = score below 0.9.
The reply should name one outcome from active, inactive

(Q) Dear colleague, could you share the recorded outcome for `CN(C)C(=O)NC1(c2ccccc2)CCN(CC[C@@]2(c3ccc(F)c(F)c3)CN(C(=O)c3ccccc3)CCO2)CC1` when you have a moment?
(A) active

(Q) How was `CCCCCCCCCCCCCCOS(=O)(=O)O` classified in this test?
(A) active

(Q) Hi, sorry to bother you, what did the test record for `O=C(N[C@@H](c1ccccc1)[C@@H]1CCCCN1)c1cccc(C(F)(F)F)c1Cl` ?
(A) active

(Q) What call does the record list for `Cc1cc(SC2=C(O)C[C@@](CCc3ccc(N)cc3)(C(C)C)OC2=O)c(C(C)(C)C)cc1CO` ?
(A) inactive

(Q) Test call, this molecule: `COc1ccc(OC(F)(F)F)cc1CN[C@H]1CCCN[C@H]1c1ccccc1`
(A) active

(Q) Status in this test for `CCN(CC)CCOc1ccc(C(=C(Cl)c2ccccc2)c2ccccc2)cc1` ?
(A) active

###

Read-out: Monocyte Chemoattractant Protein-1 (MCP1), CCL2 (gene 6347)
Assay Notes: BSK_SAg_MCP1: BioMAP Diversity Plus: SAg Assay for Monocyte Chemoattractant Protein-1 (MCP1) Biomarker Activity (AID 2283090)
Cond: primary human HUVEC with PBMC; actives raise or lower the signal
Activity calls are given as the source filed them. Rule for the calls: active = hit-call score of the fitted dose curve at least 0.9, where 1 is the maximum; inactive = score below 0.9.
Valid outcomes are listed here; reply with one: active, inactive

(Q) Called result for `N[C@@H](Cc1c[nH]c2ccccc12)C(=O)O`
(A) inactive

(Q) Hey, what did the test say about `O=[Si]=O` ?
(A) inactive

(Q) Hi, do you know how `CCCCCCC(C=O)=Cc1ccccc1` came out in this test?
(A) active

(Q) Called result for `COC(=O)[C@H]1[C@H]2C[C@@H]3c4[nH]c5cc(OC)ccc5c4CCN3C[C@H]2C[C@@H](OC(=O)c2cc(OC)c(OC)c(OC)c2)[C@@H]1OC`
(A) active

(Q) Could you check what this test reported for C#CC(O)C(CC)CCCC (stereo unspecified) ?
(A) inactive

(Q) What is the recorded call for this compound in the test? `CS(=O)(=O)c1ccc([C@@H](C[C@H]2CCC(=O)C2)C(=O)Nc2cnccn2)cc1Cl`
(A) inactive

###

Assay Notes: ATG_RORE_CIS: Attagene CIS-FACTORIAL HepG2 Assay for human RAR-related Orphan Receptor Element (RORE) (AID 2282959)
Cond: HepG2 Attagene cis-factorial RORE reporter, mRNA; actives raise or lower the signal
Activity calls are given as the source filed them. Rule for the calls: active = hit-call score of the fitted dose curve at least 0.9, where 1 is the maximum; inactive = score below 0.9.
Pick one and only one: t (active), f (inactive)

(Q) // return assay outcome for `O=C1NC(=O)C(c2ccccc2)(c2ccccc2)N1`
(A) f

(Q) What call does the record list for CC(=O)CC(c1ccccc1)c1c(O)c2ccccc2oc1=O (stereo not given) ?
(A) f

(Q) Hi, do you know how `NC1CCCCC1` came out in this test?
(A) f

(Q) What was the test verdict on `CCCCCCCCCCCCCCCCO` ?
(A) f

(Q) In this assay, the call recorded for `CCc1cc(C2=C(C(=O)O)N(c3ccccc3C(F)(F)F)S(=O)(=O)c3ccccc32)cc2c1OCO2` was what?
(A) f

(Q) Could you check what this test reported for `Cc1occc(=O)c1O` ?
(A) f

(Q) Identify the outcome logged in this assay for the compound shown: `CC(C)c1cccc(C(C)C)c1NC(=O)NS(=O)(=O)c1cc(C(C)(C)O)co1`
(A) f

(Q) What did the test return for `O=C1CCCCC1` ?
(A) f

(Q) Test call for this compound, please: `CC(=O)[C@@]1(O)CC[C@H]2[C@@H]3CCC4=CC(=O)CC[C@]4(C)[C@H]3CC[C@@]21C`
(A) f

(Q) Check the results log: what was the call for `Nc1nc(Cl)nc2c1ncn2[C@H]1C[C@H](O)[C@@H](CO)O1` ?
(A) f

(Q) Short answer needed: outcome of this test for `O=C1O[C@H]([C@H](O)CO)C(O)=C1O` ?
(A) f

(Q) So what was the verdict on `O=NO` in this test?
(A) f

(Q) For `CN(C)CCCN(C)CCCN(C)C` , what call appears in the results of this test?
(A) f

(Q) Any idea what this test logged for `NC=O` ?
(A) f

(Q) Kindly provide the recorded test outcome for the following compound: `CC(C)(O)c1ccc(CNC(=O)c2cccnc2Oc2ccc(F)cc2)cc1`
(A) f

(Q) Entry `COC(=O)[C@H]1[C@H]2C[C@@H]3c4[nH]c5cc(OC)ccc5c4CCN3C[C@H]2C[C@@H](OC(=O)c2cc(OC)c(OC)c(OC)c2)[C@@H]1OC` : call = ?
(A) f

(Q) Per the assay record, what outcome was assigned to `C/C=C/C=C/C(=O)O` ?
(A) f

(Q) Any idea what this test logged for CCCCCCC(CCCCCCCCCCC(=O)OCC(COC(C)=O)OC(C)=O)OC(C)=O (stereo not given) ?
(A) f

(Q) Write down the call the test reported for this compound. Item: `NCCOCCOCCN`
(A) f

(Q) Could you kindly confirm the outcome this assay logged for `Cc1ccc(C(C)(C)C)c(O)c1` ?
(A) f

(Q) Recorded call for `CCc1nc(N)nc(N)c1-c1ccc(Cl)cc1` ?
(A) t

(Q) Recorded call for `CO[C@@H]1COCC[C@@H]1N[C@@H]1CC[C@@](C(=O)N2CCc3ncc(C(F)(F)F)cc3C2)(C(C)C)C1` ?
(A) f

(Q) Field: outcome | Entry: `NC(=Nc1ccccc1)Nc1ccccc1`
(A) t

(Q) # fetch the recorded call for CC(COCC(C)OC(=O)c1ccccc1)OC(=O)c1ccccc1 (stereo not given) here
(A) f

(Q) Test call, this compound: `OCC(CO)n1cnc(-c2ccc(F)cc2)c1-c1ccnc(Oc2ccccc2)n1`
(A) f

(Q) Returns: the outcome recorded for `CC(C)COC(=O)CCCCC(=O)OCC(C)C` in this assay.
(A) f

(Q) Recorded test outcome, item `Cc1cc(Cc2ccc(N)c(C)c2)ccc1N`
(A) f

(Q) Which outcome was entered for the compound CCC(C)N(C)C(=O)c1cc2ccccc2c(-c2ccccc2Cl)n1 (stereo not given) in this test?
(A) t

(Q) Record lookup: outcome of this test for `CCCCCCC(C=O)=Cc1ccccc1` ?
(A) f

(Q) Hello, I am checking results. What call was entered for `CSc1ccc(Oc2ccc(S(N)(=O)=O)cc2CN(C)C)cc1C` ?
(A) f

(Q) // outcome(item) with item = `O=C(NS(=O)(=O)/C=C/c1cccs1)c1ccc(F)cc1Br`
(A) f

(Q) Give the logged outcome of this assay for the following compound: `COc1ccc(C(=O)Nc2nc3ccccc3c(NCc3ccccc3)c2C#N)cc1`
(A) f

(Q) Please let me know the test result on file for `CCCCCCCC(=O)OC` .
(A) f

(Q) // return assay outcome for `Oc1ccc(O)cc1`
(A) f

(Q) What is the recorded call for this compound in the test? `Cn1cnc2c1c(=O)[nH]c(=O)n2C`
(A) f

(Q) Field: outcome | Entry: CC(=O)OC1CC(C)OC(C)O1 (stereo not given)
(A) f

(Q) # outcome recorded in this test, key = `C=CCc1ccc(OC)c(OC)c1`
(A) f

(Q) Kindly provide the recorded test outcome for the following compound: CC(C)NCC(O)c1ccc(O)c(O)c1 (stereo not given)
(A) f

(Q) Hi, sorry to bother you, what did the test record for `C=CCCCCCCCCCCCC` ?
(A) f

(Q) Answer briefly: the call reported for `O=C(O)c1cccnc1` in this assay.
(A) f

(Q) Please indicate how the test categorized `O=C(N[C@@H](c1ccccc1)[C@@H]1CCCCN1)c1cccc(C(F)(F)F)c1Cl` .
(A) f

(Q) Dear all, I need the recorded test outcome for `O=Cc1ccccc1C=O` , thank you.
(A) f

(Q) Look up the recorded call for `CC(C)(C)c1ccccc1` in this test.
(A) f

(Q) What did the test return for `O=C1OC(c2ccc(O)cc2)(c2ccc(O)cc2)c2ccccc21` ?
(A) t

(Q) Just curious, what result did `COC(=O)CCCC(=O)OC` get here?
(A) f
